Consider the following binders; for each one, report its IC50 (pSTAT3).
- tested.system: T1, human IL-23R endogenously expressed on DB cells (CRL-2289) (human, UniProt Q5VWK5 24-629)
- T1 sequence (looked up): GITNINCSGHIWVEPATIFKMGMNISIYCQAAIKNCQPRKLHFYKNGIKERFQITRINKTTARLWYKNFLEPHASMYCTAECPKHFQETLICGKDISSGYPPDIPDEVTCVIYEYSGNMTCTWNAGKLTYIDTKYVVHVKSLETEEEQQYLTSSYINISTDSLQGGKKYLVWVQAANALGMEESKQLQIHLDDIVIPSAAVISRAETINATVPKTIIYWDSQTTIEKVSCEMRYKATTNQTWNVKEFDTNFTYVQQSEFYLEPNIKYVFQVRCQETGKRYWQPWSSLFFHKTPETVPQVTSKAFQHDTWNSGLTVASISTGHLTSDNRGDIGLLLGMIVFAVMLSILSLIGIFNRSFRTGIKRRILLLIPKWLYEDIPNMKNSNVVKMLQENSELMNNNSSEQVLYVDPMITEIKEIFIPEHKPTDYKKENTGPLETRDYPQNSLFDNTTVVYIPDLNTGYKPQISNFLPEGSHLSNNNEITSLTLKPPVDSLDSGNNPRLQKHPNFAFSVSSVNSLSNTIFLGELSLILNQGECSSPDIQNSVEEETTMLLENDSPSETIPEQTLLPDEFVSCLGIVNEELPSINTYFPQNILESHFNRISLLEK
- experimental.details: cell-based or functional assay
*1 amine or outer side, *2 acyl side, *3 side chain or, on linkers, in order; H or OH if unused. Bridges are numbered along the chain shown (N, C = ends). Primed or numbered codes have the meaning given here. Where no end group is shown, it is not given here. [ ]: non-standard residue; d: D form. 4‑Aminomethyl‑phenylacetyl = 4-aminomethyl-phenylacetyl unit, its amine closes the lactam, O=C(Cc1ccc(CN[*:1])cc1)[*:2]; 1,3‑dibromopropan‑2‑one(3) = linker giving 1,3-dithio-propan-2-one bridge -SCH2C(=O)CH2S- between Cys; 2Nal = N[C@@H](Cc1ccc2ccccc2c1)C(=O)O; AEF = NCCOc1ccc(C[C@H](N)C(=O)O)cc1; d3Pal = N[C@H](Cc1cccnc1)C(=O)O; αMeL = CC(C)C[C@](C)(N)C(=O)O; CH2COCH2 = O=C(C[*:1])C[*:2]; 3Amb = NCc1cccc(C(=O)O)c1; Dab = NCC[C@H](N)C(=O)O
Note: unit nM is implicit; provide only the numeric part.

Kindly note the recorded IC50 (pSTAT3) for [3Amb]SCWQC[AEF][2Nal][αMeL]ER[d3Pal]-NH2 (lactam (positions not given here); linker 3-6 via 1,3‑dibromopropan‑2‑one(3); not fully specified (bridges); printed as [(3-Aminomethyl)benzoyl](1c)*SC(2a)WQC(2a)][Y(2-aminoethoxy)][2-Nal][2-Me-Leu]E(1c)R[{d}[3-(3-Pyridyl)-Ala]]-[NH2]) [Compound 150] , which is 14.3

Kindly note the recorded IC50 (pSTAT3) for [3Amb]SCWQC[AEF][2Nal]LER-NH2 (lactam N-10; linker 3-6 via CH2COCH2; SMILES CC(C)C[C@@H]1NC(=O)[C@H](Cc2ccc3ccccc3c2)NC(=O)[C@H](Cc2ccc(OCCN)cc2)NC(=O)[C@@H]2CSCC(=O)CSC[C@H](NC(=O)[C@H](CO)NC(=O)c3cccc(c3)CNC(=O)CC[C@@H](C(=O)N[C@@H](CCCNC(=N)N)C(N)=O)NC1=O)C(=O)N[C@@H](Cc1c[nH]c3ccccc13)C(=O)N[C@@H](CCC(N)=O)C(=O)N2) [Compound 39] , which is 19.6

Kindly note the recorded IC50 (pSTAT3) for [4‑Aminomethyl‑phenylacetyl]SEWQ[Dab][AEF][2Nal][αMeL]E[Dab]-NH2 (lactam N-10, 3-6) [Compound 125] , which is 21.2
